Provenance of the data: PubChem BioAssay (NCI)

# Test system: SK-MEL-5 melanoma
# assay.info: NCI tumour cell line growth inhibition, 48 h
Reported values of log10(TGI) for individual entries
Response schema: value (number) is log10 of TGI in units of µM.

molecule	log10(TGI)
O=C(Nc1ccc(Cl)cc1)c1cc(-c2ccc(F)cc2)c2sc(=O)[nH]c2n1	0.33
COc1cccc(Nc2nc(C)c([N+](=O)[O-])c(Nc3cccc(OC)c3)n2)c1	1.89
OC1=C2c3ccccc3NC2Oc2cc(F)ccc21 (stereo not given)	1.45
CC1=NN(c2cccc(S(=O)(=O)O)c2)C2(C1)C(Cl)C(=O)N2c1nc2ccccc2s1 (stereo not given)	1.27
Cc1ccc(Nc2nc3c(s2)C(=O)c2ccccc2C3=O)c(C)c1	1.45
CCOC(=O)CC[C@H](N)C(=O)N[C@@H](Cc1ccc(N(CCCl)CCCl)cc1)C(=O)OCC	0.50

Ask | Reported log10(TGI), molecule Nc1ccc(/C=C/c2ccnc3ccccc23)cc1 : ____
Reply | 1.47

Ask | Also C[N+](C)(C)CC1CCCC(C[N+](C)(C)C)C1=O (stereo not given) , if possible.
Reply | 1.02

====

Reported values of TGI for individual entries
# Tested on: SK-MEL-2 melanoma
# assay.info: NCI tumour cell line growth inhibition, 48 h

compound	TGI
CC[C@@]1(O)C(=O)OCc2c1cc1n(c2=O)Cc2c-1nc1ccccc1c2/C=N\NC(=O)C[n+]1ccccc1	> 89.6 µM

Ask | So what TGI did Cc1ccc(Nc2nc3c(s2)C(=O)c2ccccc2C3=O)c(C)c1 get with SK-MEL-2 melanoma?
Reply | 28.2 µM

Ask | Also CN1CCCC2C(c3ccccc3)C(C3=NCCCC3)C(c3ccccc3)CC21 (stereo not given) , if possible.
Reply | > 100 µM

Ask | Also CC1(n2nc(-c3ccccc3)n(-c3ccccc3)c2=O)CSC1 , if possible.
Reply | > 100 µM

Ask | Also CC(C)(C)OC(=O)Cc1ccc2c(ccn2Cc2ccccc2)c1 , if possible.
Reply | > 100 µM

====

# Tested on: LOX IMVI melanoma
# assay.info: NCI tumour cell line growth inhibition, 48 h
readout: TGI (µM)
Enter your answer as a number in µM; do not include the unit.

# example entries with known answers
compound	TGI, µM
CC/C=C\C[C@@H]1C/C=C2/C(=O)C=C[C@H]2C/C=C\CCCC(=O)O1	0.323
OC1=C2c3ccccc3NC2Oc2cc(F)ccc21 (stereo not given)	39.3
CCN(CCCl)c1cc(CN(C)C)cc(NC(=O)c2ccc(C(=O)Nc3cc(CN(C)C)cc(N(CC)CCCl)c3)cc2)c1	0.712
O=C(c1cccc(O)c1O)c1cn(Cc2ccc(F)cc2)c2cccc(O)c12	16.1
COc1cc(C(=O)NNC(=O)c2cc(Br)ccc2NC(=O)c2cccs2)cc(OC)c1OC	37.1

Ask | Reported TGI, compound CN1CCC23c4c5ccc(Oc6nnnn6-c6ccccc6)c4OC2c2[nH]c4ccccc4c2CC3(O)C1C5 (stereo not given) : ____
Reply | 3.75

Ask | Also CN(C)CC/C(=N\Nc1c(Cl)cccc1Cl)c1ccccc1 , if possible.
Reply | 31

====

# Tested on: EKVX NSCLC
# assay.info: NCI tumour cell line growth inhibition, 48 h
readout: GI50

# example entries with known answers
molecule	target.of.assay	endpoint.result
CC(=O)OC1CC(O)C23COC(O)C1(C)C2CC(O)C1(C)C3C(=O)C(O)C2(C)C(c3ccoc3)CC3OC321 (centres undefined)	EKVX NSCLC	1.94 µM
CCC1(O)C(=O)OCc2c1cc1n(c2=O)Cc2cc3ccc(C=O)cc3nc2-1 (centres undefined)	EKVX NSCLC	15.1 µM
COc1ccc2c(c1)C(=O)c1c-2n(CCCn2ccnc2)c(=O)c2ccccc12	EKVX NSCLC	1.51 µM
NC(N)=NCCCn1c2c(c3ccccc3c1=O)C(=O)c1ccccc1-2	EKVX NSCLC	16.6 µM
CN(C)c1ccc(N)cc1	EKVX NSCLC	3.32 µM
CCN(CC)c1sc(N(CC)CC)c2c1SSSSS2	EKVX NSCLC	1.84 µM
CC(=O)[CH-]C(=O)c1ccccc1.CC(=O)[CH-]C(=O)c1ccccc1.O=C([O-])c1ccc([O-])cc1.O=C([O-])c1ccc([O-])cc1.[Ti+4]	EKVX NSCLC	23.9 µM
CCOC(=O)c1c(CN2CCN(c3ccccc3)CC2)n(-c2ccccc2)c2cc(Br)c(O)cc12	EKVX NSCLC	11.2 µM
CN(C)CCCn1c2c(c3ccccc3c1=O)C(=O)c1ccccc1-2	EKVX NSCLC	11.3 µM
O=C(c1cccc(O)c1O)c1cn(Cc2ccc(F)cc2)c2cccc(O)c12	EKVX NSCLC	9.3 µM

Ask | Reported GI50, molecule NC(=S)N/N=C/c1ccc(OC(=O)COc2ccc(Cl)cc2)cn1 : ____
Reply | 30.9 µM

Ask | Also Cc1ccc(C(=NN=C(N)N)c2ccc(C)cc2)cc1 , if possible.
Reply | 0.7 µM

Ask | Also Cc1ccc(/C(=C/C=C(C#N)C#N)Sc2ccc(Cl)cc2)cc1 , if possible.
Reply | 22.3 µM

Ask | Also COc1ccc(C(=O)COc2cccc(/C=C3\COc4ccc5ccccc5c4C3=O)c2)cc1 , if possible.
Reply | 4.26 µM
